Catalogue of molecules with associated composite z-score
Target: Albumin (Bos taurus) (UniProt P02769)
Sequence (P02769 whole entry, looked up): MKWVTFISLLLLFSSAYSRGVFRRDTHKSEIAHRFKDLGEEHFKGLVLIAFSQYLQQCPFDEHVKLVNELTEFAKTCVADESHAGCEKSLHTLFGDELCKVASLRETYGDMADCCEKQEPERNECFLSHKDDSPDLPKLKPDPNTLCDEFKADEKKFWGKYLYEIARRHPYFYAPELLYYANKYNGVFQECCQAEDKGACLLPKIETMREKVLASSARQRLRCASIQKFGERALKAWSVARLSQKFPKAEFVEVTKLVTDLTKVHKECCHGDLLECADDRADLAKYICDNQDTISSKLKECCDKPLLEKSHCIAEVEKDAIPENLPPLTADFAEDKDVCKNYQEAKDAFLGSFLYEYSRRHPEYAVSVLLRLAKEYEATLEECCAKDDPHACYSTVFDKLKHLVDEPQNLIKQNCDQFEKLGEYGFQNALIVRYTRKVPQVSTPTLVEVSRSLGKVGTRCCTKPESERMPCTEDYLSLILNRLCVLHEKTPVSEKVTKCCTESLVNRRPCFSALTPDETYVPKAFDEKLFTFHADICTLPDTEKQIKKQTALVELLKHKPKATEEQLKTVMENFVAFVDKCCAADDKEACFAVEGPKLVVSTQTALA
Experiment Notes: bovine serum albumin binders on microarray, profiling panel, artefact control for SMM control protein annotation, biochemical, small-molecule microarray, Alexa647 label, 635/667 nm fluorescence (AID 1118);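 also: score merges 667 nm emission intensity and signal-to-noise per printed compound spot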
Conditions: BSA-A647 binding, fluorescence 635 nm, higher = more signal
// return a plain number; no unit text

Some solved entries appear below for comparison.
Molecule	composite z-score
O=C1c2ccccc2[C@](Cc2ccccc2I)(C(=O)NCC(F)(F)F)[C@H](c2ccc(CO)cc2)N1Cc1ccccc1Cl	0.83
C=CCOC(=O)[C@H]1[C@@H]2C(=O)O[C@@H](c3ccccc3)[C@@H](c3ccccc3)N2[C@@H](c2ccc(OCCOC(=O)[C@@H]3C[C@@H]4C(=O)N[C@@H](CCCCNC(C)=O)C(=O)N4[C@@H]3c3ccc(O)cc3)cc2)[C@]12C(=O)Nc1ccccc12	-0.729
C=CCC(OC(C)=O)[C@@H]1[C@@H](N(Cc2ccc(-c3ccccc3)cc2)C(=O)c2cccc3ccccc23)c2cc(OCCCO)ccc2N1C(=O)c1ccc(-c2ccccc2)cc1 (stereo not given in full)	-0.0695
C=CCOC(=O)[C@H]1[C@@H]2C(=O)O[C@@H](c3ccccc3)[C@@H](c3ccccc3)N2[C@@H](c2ccc(OCCOC(=O)[C@H]3C[C@H]4C(=O)N[C@@H](CCCC[N+](C)(C)C)C(=O)N4[C@H]3c3ccc(O)cc3)cc2)[C@]12C(=O)Nc1ccc(I)cc12	-0.763

# query: composite z-score of entry CCC[C@@H]1C[C@@]1(CCC)[C@@H](NC(=O)c1ccccc1)c1cccc(Cl)c1
0.941
